Test: qHTS Assay for Identification of Small Molecule Antagonists for NFkB Signaling Pathway (AID 895)
Conditions: NFkB beta-lactamase reporter cells, FRET ratio 460/530; series mostly up to 38.3 µM
Method: NIH Molecular Libraries Screening Centers Network [MLSCN] NIH Chemical Genomics Center [NCGC] The TNF alpha/NFkB signaling pathway was assayed in NFkB-bla cells (Invitrogen), a ME-180 cervical carcinoma line containing a stably integrated beta-lactamase reporter gene controlled by a NFkB response element. […] The assay was screened at the EC50 of TNF alpha activation to identify inhibitors of TNF alpha/NFkB signaling. NCGC Assay Protocol Summary: […]
Records with an inconclusive call do not appear. Active and inactive are the calls of the source. Calls come from the whole dose curve; as a rule, active = well fitted inhibition curve with a large enough effect in the signal ratio, with a control signal flat (not every such curve was filed as active); inconclusive = small, poorly fitted or top-dose-only effect, or effect the other way, or a change in a side signal; inactive = flat fitted curve, though single readings scatter; the % refers to the signal ratio.
Outcome field: choose from YES (active), NO (inactive)

record smiles: O=C(O)CC[N+](=O)[O-]
qualitative label: NO
--
record smiles: NC(=NCCC[C@H](N)C(=O)O)N[N+](=O)[O-]
qualitative label: NO
--
record smiles: COc1ccc2c(c[n+](C)c3c4cc5c(cc4ccc23)OCO5)c1OC
qualitative label: YES
--
record smiles: Cn1cnc(CCN)c1
qualitative label: NO
--
record smiles: CN[C@@H]1C[C@@H](c2ccc(Cl)c(Cl)c2)c2ccccc21
qualitative label: YES

Task: Outcome logged for `C[C@]12N[C@H](Cc3ccccc31)c1ccccc12` in this assay:
Output: NO

Task: I would be grateful if you could indicate the recorded call for `CCCN1CCO[C@@H]2c3cc(O)ccc3OC[C@H]21` .
Output: NO

----------
Target: Nucleoprotein (Lymphocytic choriomeningitis virus (strain Armstrong)) (UniProt P09992)
Sequence (P09992 whole entry, looked up): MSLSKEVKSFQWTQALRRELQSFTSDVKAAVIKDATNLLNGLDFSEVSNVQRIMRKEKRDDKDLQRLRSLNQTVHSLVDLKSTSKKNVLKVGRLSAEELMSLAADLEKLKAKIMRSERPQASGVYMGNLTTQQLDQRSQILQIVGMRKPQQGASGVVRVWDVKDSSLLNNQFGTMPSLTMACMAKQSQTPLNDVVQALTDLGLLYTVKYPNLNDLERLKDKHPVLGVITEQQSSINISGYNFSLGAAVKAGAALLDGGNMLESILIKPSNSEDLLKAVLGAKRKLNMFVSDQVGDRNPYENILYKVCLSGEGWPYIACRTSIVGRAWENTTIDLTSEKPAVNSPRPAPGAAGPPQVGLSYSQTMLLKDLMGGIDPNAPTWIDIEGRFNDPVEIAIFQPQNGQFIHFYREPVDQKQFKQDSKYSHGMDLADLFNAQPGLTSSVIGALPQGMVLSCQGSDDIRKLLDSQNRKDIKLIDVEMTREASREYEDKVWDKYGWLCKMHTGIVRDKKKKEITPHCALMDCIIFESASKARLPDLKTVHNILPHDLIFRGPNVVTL
Experiment: qHTS for Inhibitors of the Functional Ribonucleoprotein Complex (vRNP) of Lymphocytic Choriomeningitis Arenaviruses (LCMV): LCMV Primary Screen - GLuc reporter signal (AID 1347086); note: nearly all actives have a fitted effect of over 70% in size
Conditions: LCMV minigenome vRNP cell assay, Gaussia luciferase reporter; series mostly up to 57.5 µM
Results filed as inconclusive are left out. Active and inactive are the calls of the source. The call rests on the fitted dose curve.
Write down the outcome that applies. Available outcomes: y for active, n for inactive

record smiles: CCOCCOC(C)=O
qualitative label: n
--
record smiles: Nc1ccc(O)c([N+](=O)[O-])c1
qualitative label: n
--
record smiles: O=c1[nH]c2ccccc2n1C1CCN(Cc2ccc(-c3[nH]c4cc5ncnc5cc4nc3-c3ccccc3)cc2)CC1
qualitative label: n
--
record smiles: COc1ncc(-c2ccc3nccc(-c4ccnnc4)c3c2)cc1NS(=O)(=O)c1ccc(F)cc1F
qualitative label: y
--
record smiles: NCCc1c[nH]c2ccccc12
qualitative label: n

Next, consider the following compound.
Task: Recorded call for `O=C(Oc1ccccc1)c1cccc(C(=O)Oc2ccccc2)c1` ?
Output: n

----------
Tested on: UISO
Assay: qHTS assay to identify novel small-molecules to repurpose for Merkel cell carcinoma treatment (AID 1296009); note: % is set by controls: 0 for no effect and ±100 for the full control effect; nearly all actives have a fitted effect of over 60% in size
Conditions: MCC and control cell lines, CellTiter-Glo viability, 72 h; series mostly up to 46 µM
Results filed as inconclusive are left out. Activity calls are given as the source filed them. The call rests on the fitted dose curve; in most records, active means well fitted inhibition curve with a large enough effect; inconclusive means small, poorly fitted or top-dose-only effect; inactive means flat fitted curve, though single readings scatter.
Write down one outcome, taken from t for active, f for inactive

Example entries and their recorded answers appear below.
compound: CC(=Cc1csc(C)n1)[C@@H]1C[C@H]2O[C@@H]2CCC[C@H](C)[C@@H](O)[C@@H](C)C(=O)C(C)(C)[C@@H](O)CC(=O)O1
qualitative label: f
//
compound: Fc1cc(Br)ccc1CBr
qualitative label: f
//
compound: Nc1ccc(Sc2ccc(N)cc2)cc1
qualitative label: f

Task: Hi, sorry to bother you, what did the test record for `O=[N+]([O-])c1ccc([As](=O)(O)O)cc1` ?
Output: f

Task: Could you please tell me the result logged for `O=c1cccc2n1CC1CNC[C@H]2C1` in this assay?
Output: f

Task: Record lookup: outcome of this test for CC1(C)CC/C(=C/c2ccc(Cl)cc2)C1(O)Cn1cncn1 (stereo not given) ?
Output: f

Task: Give the logged outcome of this assay for the following compound: CC(O)CN1CCN(CC(=O)[O-])CCN(CC(=O)[O-])CCN(CC(=O)[O-])CC1.[Gd+3] (stereo not given)
Output: f

Task: Please state the recorded outcome for this compound: `C[C@]12CCC(=O)C(O)=C1CC[C@@H]1[C@H]3CCC(=O)[C@@]3(C)CC[C@@H]12`
Output: f

----------
Experiment: qHTS for Inhibitors of the Functional Ribonucleoprotein Complex (vRNP) of Lassa (LASV) Arenavirus: LASV Primary Screen - GLuc reporter signal (AID 1347082); note: nearly all actives have a fitted effect of over 60% in size
Details: LASV minigenome vRNP, Gaussia luciferase reporter; series mostly up to 57.5 µM
Records with an inconclusive call do not appear. Active and inactive are the calls of the source. Calls come from the whole dose curve; tested in HEK293 reporter line.
Your response should consist of one outcome taken from class 1 = active, class 0 = inactive

Completed entries (count: 6):
compound: C#C[C@]1(O)C=C[C@@H]2[C@@H]3CCC4=CC(=O)CC[C@@H]4[C@H]3CC[C@@]21CC
qualitative label: class 0
--
compound: Cn1cc(-c2ccc3nnc(C(F)(F)c4ccc5ncccc5c4)n3n2)cn1
qualitative label: class 0
--
compound: O=S(=O)(O)C(F)(F)C(F)(F)C(F)(F)C(F)(F)C(F)(F)C(F)(F)C(F)(F)C(F)(F)F
qualitative label: class 0
--
compound: O=C(O)CC(O)C(=O)O (stereo not given)
qualitative label: class 0
--
compound: CC(C)NC(C)Cc1ccc(I)cc1 (stereo not given)
qualitative label: class 0
--
compound: COCCOCCO
qualitative label: class 0

Task: Could you check what this test reported for CC(NCc1ccc2c(c1)nc(NC(=O)c1ccc(-c3cn[nH]c3)s1)n2CC(C)(C)O)C(C)(C)C (stereo not given) ?
Output: class 1

Task: Please state the recorded outcome for this compound: `O=C(Nc1ccccc1-c1cn2c(CN3CCNCC3)csc2n1)c1cnc2ccccc2n1`
Output: class 0

Task: For `CCn1c(-c2nonc2N)nc2cnc(Oc3cccc(NC(=O)c4ccc(OCCN5CCOCC5)cc4)c3)cc21` , what call appears in the results of this test?
Output: class 1

Task: # outcome recorded in this test, key = `Cc1ccc(C(N)=O)cc1Nc1nccc(-c2cn(C(C)C)c3cnccc23)n1`
Output: class 1

----------
Z-AUC values, listed per item
Test: qHTS drug screen for cell cycle checkpoint inhibitors in PARPi-resistant BRCA-mutant ovarian cancer cell lines. (AID 1963452)
Conditions: PEO1/OlaR viability, CellTiter-Glo luminescence, 96 h; measured here: PEO1 parental Z-AUC; stronger effect = lower value
Write no unit; give the number alone.

Before answering, review these 4 worked examples.
molecule: CCNC(=O)CC1N=C(c2ccc(Cl)cc2)c2cc(OC)ccc2-n2c(C)nnc21 (stereo not given)
Z-AUC: 0.653

molecule: CC1(N2CCC(n3c([C@@H]4CCCNC4)nc4ccccc43)CC2)CCCCCCC1
Z-AUC: 0.227

molecule: CCc1c(C(=O)C(N)=O)c2c(OCC(=O)O)cccc2n1Cc1ccccc1
Z-AUC: 0.125

molecule: O=C(Oc1ccc([N+](=O)[O-])cc1)N1CCN(Cc2cccc(Oc3ccccc3)c2)CC1
Z-AUC: 1.12

Next item in the queue.
Looking up `CN[C@@H]1Cc2cccc3[nH]c(=O)n(c23)C1` , I found its Z-AUC recorded as 1.4

----------
System: HEK293
Experiment: Cytotoxic Profiling of Annotated Libraries Using Quantitative High-Throughput Screening (AID 1296008); note: % is set by controls: 0 for no effect and ±100 for the full control effect; nearly all actives have a fitted effect of over 60% in size
Settings: Five cell lines viability, CellTiter-Glo ATP luminescence, 48-72 h; stronger effect = lower value
Results filed as inconclusive are left out.
In this section we review reported max response values for a set of compounds.
Your answer is read as %, so omit the unit and give the number.

record smiles: C1CCC(NC2CCCCC2)CC1
unit: %
observed value: 2.36

record smiles: CC(C)(C)NC[C@H](O)c1ccc(O)cc1Cl
unit: %
observed value: -9.08

record smiles: CCN1C[C@]2(OC(=O)c3ccccc3NC(C)=O)CC[C@H](OC)[C@@]34[C@H]5CC6[C@@H](OC)C[C@](O)(C(C[C@@H]23)[C@@H]14)[C@@]5(O)[C@@H]6OC
unit: %
observed value: -8.41

record smiles: O=[N+]([O-])c1ncc[nH]1
unit: %
observed value: -7.79

record smiles: CS(=O)(=O)c1ccc(C(=O)C2C(=O)CCCC2=O)c([N+](=O)[O-])c1
unit: %
observed value: -9.25

Sure, the documented max response for `O=C(Oc1ccc([N+](=O)[O-])cc1)N1CCC(C(O)(c2ccc3c(c2)OCO3)c2ccc3c(c2)OCO3)CC1` is -16.1

Input `CCOC(=O)c1c(C(C#N)=CN)c2ccc(Cl)c(Cl)c2n1C` . Output max response: -12.5

Item: `O=C1CCC[C@@H]2[C@H]3CCCN4CCC[C@@H](CN12)[C@@H]34` | max response: -4.12

The compound `O=C(O)COc1nc(Cl)c(Cl)cc1Cl` showed max response equal to -3.5

Record `Oc1ccc2c3c1O[C@H]1[C@@H](O)C=C[C@H]4[C@@H](C2)NCC[C@@]341` . Reported max response: -17.4

----------
Assay: qHTS of pediatric cancer cell lines to identify multiple opportunities for drug repurposing: Primary screen for Rh30 cells (AID 1347107); note: nearly all actives have a fitted effect of over 75% in size
Conditions: Rh30 rhabdomyosarcoma viability, CellTiter-Glo luminescence, 48 h; series mostly up to 46 µM
Inconclusive results are not listed. Calls of active or inactive are those of the source. The call rests on the fitted dose curve; in most records, active means well fitted cell-killing curve with a large enough effect; inconclusive means small, poorly fitted or top-dose-only effect; inactive means no such curve, though single readings can be large or run the other way.
The reply should name one outcome from active, inactive

compound: CC(=Cc1csc(C)n1)[C@@H]1C[C@H]2O[C@@H]2CCC[C@H](C)[C@@H](O)[C@@H](C)C(=O)C(C)(C)[C@@H](O)CC(=O)O1
qualitative label: inactive

Attention now shifts to the item below.
Task: Answer briefly: the call reported for `CC=C(C)C(=O)O[C@H]1C(C)=C2[C@@H]3OC(=O)[C@@](C)(O)[C@@]3(O)[C@@H](OC(=O)CCC)C[C@](C)(OC(C)=O)[C@@H]2[C@@H]1OC(=O)CCCCCCC` in this assay.
Output: active

FYI, the data here is from PubChem BioAssay (NCATS).
